Reported Kd by item:
# STUDY SYSTEM: MITF (UniProt Q08874 287-403)
# Sequence (Q08874 287-403): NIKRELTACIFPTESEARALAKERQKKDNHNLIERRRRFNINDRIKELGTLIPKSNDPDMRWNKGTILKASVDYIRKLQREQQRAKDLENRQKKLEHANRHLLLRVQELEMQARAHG
# ASSAY TEXT: fluorescence anisotropy; FA: 0.5 nM dsDNA, 10 mM Tris/HCl pH 7.5, 300 mM NaCl, 0.01% Triton X-100, 0.1 mg/mL BSA, 25 °C, 5 min; fit one MITF dimer per dsDNA. Crystals: 0.9 M sodium malonate pH 5.5
# CONDITION INFO: protein: recombinant; chain copies: 2; label: 3' fluorescein on strand 1; blunt

CLEAR-box (FA) (dsDNA) DNA 1: GAGATCACGTGATGAC DNA 2: GTCATCACGTGATCTC = 0.9 nM
M-box (dsDNA) DNA 1: GAGATCATGTGTTGAC DNA 2: GTCAACACATGATCTC = 2.6 nM

Okay, next one:
Which Kd is reported for this binder? E-box (dsDNA) DNA 1: GAGACCACGTGTTGAC DNA 2: GTCAACACGTGGTCTC
1.5 nM

Values compiled from paper PMC6355916.
